# Test system: Y75B8A.6 (Y75B8A.6) (Caenorhabditis elegans) (UniProt A0A168H365)
# Sequence: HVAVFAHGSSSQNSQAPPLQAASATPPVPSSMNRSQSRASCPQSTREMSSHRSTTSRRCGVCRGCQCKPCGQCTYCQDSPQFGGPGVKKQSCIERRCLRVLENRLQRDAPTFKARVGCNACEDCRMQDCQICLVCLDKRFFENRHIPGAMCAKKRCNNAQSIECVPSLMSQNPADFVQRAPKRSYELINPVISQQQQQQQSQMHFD
Readout label: binding signal (PBM E-score (-0.5 to 0.5))

// solved cases for binding signal (PBM E-score (-0.5 to 0.5)) follow
>>> print(df.to_string())
                             sequence_input                               test_system  reported_value
0  CGCGCGCG (double strand) [8-mer CGCGCGCG]  Y75B8A.6 (Y75B8A.6) (Caenorhabditis elegans) (UniProt A0A168H365)           0.476
1  CGCGGCGC (double strand) [8-mer CGCGGCGC]  Y75B8A.6 (Y75B8A.6) (Caenorhabditis elegans) (UniProt A0A168H365)           0.461
2  CGCGGAAC (double strand) [8-mer CGCGGAAC]  Y75B8A.6 (Y75B8A.6) (Caenorhabditis elegans) (UniProt A0A168H365)           0.454
3  GCGCGCAA (double strand) [8-mer GCGCGCAA]  Y75B8A.6 (Y75B8A.6) (Caenorhabditis elegans) (UniProt A0A168H365)           0.458
4  CCGCGCGC (double strand) [8-mer CCGCGCGC]  Y75B8A.6 (Y75B8A.6) (Caenorhabditis elegans) (UniProt A0A168H365)           0.462
5  GCGCGCGC (double strand) [8-mer GCGCGCGC]  Y75B8A.6 (Y75B8A.6) (Caenorhabditis elegans) (UniProt A0A168H365)           0.465

Would you mind giving binding signal (PBM E-score (-0.5 to 0.5)) for every sequence in the list below?
1. TTGCGCAA (double strand) [8-mer TTGCGCAA]
2. TCCGCGGA (double strand) [8-mer TCCGCGGA]
3. CCGCGGAA (double strand) [8-mer CCGCGGAA]
4. CGCGGAAA (double strand) [8-mer CGCGGAAA]
5. CCGCGCGG (double strand) [8-mer CCGCGCGG]
6. CCCGCGGG (double strand) [8-mer CCCGCGGG]

Result ::
[0.462, 0.471, 0.468, 0.457, 0.465, 0.451]

Below are some sequences; for each one, tell me its binding signal (PBM E-score (-0.5 to 0.5)).
1. CGCGCGGC (double strand) [8-mer CGCGCGGC]
2. CCGCGGGA (double strand) [8-mer CCGCGGGA]

Result ::
[0.451, 0.458]

###

I'd be grateful if you could share measured binding signal (PBM E-score (-0.5 to 0.5)) for these entries.
# Test system: tbx-39 (Y73F8A.16) (Caenorhabditis elegans)
# Sequence: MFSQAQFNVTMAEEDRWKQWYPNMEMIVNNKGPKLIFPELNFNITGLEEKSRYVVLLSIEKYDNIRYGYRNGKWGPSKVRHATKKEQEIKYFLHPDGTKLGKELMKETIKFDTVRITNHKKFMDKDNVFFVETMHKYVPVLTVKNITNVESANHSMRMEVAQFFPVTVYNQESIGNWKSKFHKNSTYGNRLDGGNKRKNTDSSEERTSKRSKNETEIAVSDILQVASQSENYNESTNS

>>> print(df.to_string())
                             sequence_input                               test_system  reported_value
0  AACTTGGA (double strand) [8-mer AACTTGGA]  tbx-39 (Y73F8A.16) (Caenorhabditis elegans)           0.473
1  AACTTAGT (double strand) [8-mer AACTTAGT]  tbx-39 (Y73F8A.16) (Caenorhabditis elegans)           0.479
2  ACTTGGTA (double strand) [8-mer ACTTGGTA]  tbx-39 (Y73F8A.16) (Caenorhabditis elegans)           0.472

Batch request: binding signal (PBM E-score (-0.5 to 0.5)) for each of the following sequences.
1. CTAAGTTA (double strand) [8-mer CTAAGTTA]
2. CCAAGTTC (double strand) [8-mer CCAAGTTC]
3. TGTACCAA (double strand) [8-mer TGTACCAA]
4. AACTTGGC (double strand) [8-mer AACTTGGC]
5. AAACTTGG (double strand) [8-mer AAACTTGG]
6. CTACCAAG (double strand) [8-mer CTACCAAG]

Result ::
[0.48, 0.477, 0.485, 0.497, 0.487, 0.473]

###

# Test system: ceh-34 (C10G8.6) (Caenorhabditis elegans)
# Sequence: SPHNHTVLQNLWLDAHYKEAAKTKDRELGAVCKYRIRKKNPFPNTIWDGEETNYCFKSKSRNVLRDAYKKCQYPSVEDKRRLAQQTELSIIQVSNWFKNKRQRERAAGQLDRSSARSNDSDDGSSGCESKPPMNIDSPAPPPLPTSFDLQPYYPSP
Please respond with reported binding signal (PBM E-score (-0.5 to 0.5)) for every item in the list.
Answers are plain numbers.

Would you mind listing binding signal (PBM E-score (-0.5 to 0.5)) for each of the following sequences?
1. GGTATCAC (double strand) [8-mer GGTATCAC]
2. AGGGTATC (double strand) [8-mer AGGGTATC]
3. GATATCCC (double strand) [8-mer GATATCCC]
4. ATTGATAC (double strand) [8-mer ATTGATAC]
5. AAGTATCA (double strand) [8-mer AAGTATCA]
6. ATGATATC (double strand) [8-mer ATGATATC]
7. TGATATCA (double strand) [8-mer TGATATCA]
8. GATACCCC (double strand) [8-mer GATACCCC]

Result ::
1. 0.476
2. 0.466
3. 0.466
4. 0.467
5. 0.468
6. 0.476
7. 0.483
8. 0.48

###

# Test system: C27D6.4 (C27D6.4) (Caenorhabditis elegans)
# Sequence: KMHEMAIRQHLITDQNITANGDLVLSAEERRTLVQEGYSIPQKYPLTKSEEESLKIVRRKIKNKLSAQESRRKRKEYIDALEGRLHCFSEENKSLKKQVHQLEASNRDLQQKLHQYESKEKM
Exercise: state measured binding signal (PBM E-score (-0.5 to 0.5)) for each of the sequences provided.
Numbers only.

Some solved entries appear below for comparison.
                             sequence_input  reported_value
0  CACGTGGA (double strand) [8-mer CACGTGGA]           0.495
1  ACGTGGAT (double strand) [8-mer ACGTGGAT]           0.492
2  CACGTGTA (double strand) [8-mer CACGTGTA]           0.494
3  CCACGTCA (double strand) [8-mer CCACGTCA]           0.496
4  CACGTGGC (double strand) [8-mer CACGTGGC]           0.499

# ---- query sequence ----
Record ACGTGGCG (double strand) [8-mer ACGTGGCG] ; system C27D6.4 (C27D6.4) (Caenorhabditis elegans); binding signal (PBM E-score (-0.5 to 0.5)) = 0.498

###

Kindly supply the reported binding signal (PBM E-score (-0.5 to 0.5)) values for the records listed here.
# Test system: Y44A6D.3 (Y44A6D.3) (Caenorhabditis elegans)
# Sequence: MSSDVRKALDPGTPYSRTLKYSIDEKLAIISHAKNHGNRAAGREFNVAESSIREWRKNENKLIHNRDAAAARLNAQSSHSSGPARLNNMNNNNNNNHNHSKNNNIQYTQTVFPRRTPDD
Answers are plain numbers.

Can you give me binding signal (PBM E-score (-0.5 to 0.5)) for all of these, one by one?
1. CCGCGCGG (double strand) [8-mer CCGCGCGG]
2. ACCGCGCA (double strand) [8-mer ACCGCGCA]

Result ::
0.495
0.495

Okay, here is my list. What is binding signal (PBM E-score (-0.5 to 0.5)) for each of these?
1. GGTGCGCA (double strand) [8-mer GGTGCGCA]
2. CTGCGCAA (double strand) [8-mer CTGCGCAA]
3. CCGCGCAC (double strand) [8-mer CCGCGCAC]
4. GCCGCGCA (double strand) [8-mer GCCGCGCA]

Result ::
0.493
0.495
0.496
0.494

// each sequence listed below needs its binding signal (PBM E-score (-0.5 to 0.5))
1. CTGCGCAG (double strand) [8-mer CTGCGCAG]
2. ACTGCGCA (double strand) [8-mer ACTGCGCA]
3. GTTGCGCA (double strand) [8-mer GTTGCGCA]

Result ::
0.496
0.498
0.493
